target of assay: recombinant neuraminidase (rNA) from B/Florida/04/2006 (influenza B virus B/Florida/04/06)
readout name: EC50 (read off the curve) (µg/mL)
The response must be a number in µg/mL with no trailing unit.

Look over these answered cases.
binder="recombinantly expressed 1F2 IgG2b (antibody, V domains shown) VH: QVHLQQSGPEVARPGASVKLSCKASGYTFTDYYLNWVKQRPRQGLEWIGQIHPGSTNTYYNEKFKGKATLTADKSSSTAYMQLSSLTFEDSAVYFCAISLGDGYYVYAMVCWGQGTAVTVSS VL: DIVMTQSQKFMSTSVGDRVSVTCKASQNVVTNVVWYQQKPGQSPKPLIYSASYRYSGVPDRFTGSGSGTDFTLTISNVQSEDLAEYCCQQYHSYPFTFGSGTKLEVK" observed_measurement=0.03
binder="recombinantly expressed 1F2 IgG2a (antibody, V domains shown) VH: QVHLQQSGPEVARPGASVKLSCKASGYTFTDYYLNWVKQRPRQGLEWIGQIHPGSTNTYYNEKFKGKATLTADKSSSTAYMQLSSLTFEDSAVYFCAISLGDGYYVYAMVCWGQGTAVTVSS VL: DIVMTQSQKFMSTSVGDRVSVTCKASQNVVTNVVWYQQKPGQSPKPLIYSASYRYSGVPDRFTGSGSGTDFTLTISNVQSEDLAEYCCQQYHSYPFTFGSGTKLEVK" observed_measurement=0.03
binder="recombinantly expressed 1F2 IgG1 (antibody, V domains shown) VH: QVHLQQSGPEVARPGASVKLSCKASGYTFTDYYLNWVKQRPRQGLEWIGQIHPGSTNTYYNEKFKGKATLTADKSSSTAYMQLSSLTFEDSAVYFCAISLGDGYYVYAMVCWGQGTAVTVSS VL: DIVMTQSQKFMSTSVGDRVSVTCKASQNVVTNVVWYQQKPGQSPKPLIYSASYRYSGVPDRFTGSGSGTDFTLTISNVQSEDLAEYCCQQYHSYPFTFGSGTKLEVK" observed_measurement=0.05

Req: // query EC50 (read off the curve) value for entry monoclonal antibody 1F2 (hybridoma-produced, murine IgG2a) (antibody, V domains shown) VH: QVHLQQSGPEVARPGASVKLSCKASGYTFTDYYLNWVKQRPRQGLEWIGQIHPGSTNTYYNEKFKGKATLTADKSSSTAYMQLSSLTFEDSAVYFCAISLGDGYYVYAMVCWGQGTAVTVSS VL: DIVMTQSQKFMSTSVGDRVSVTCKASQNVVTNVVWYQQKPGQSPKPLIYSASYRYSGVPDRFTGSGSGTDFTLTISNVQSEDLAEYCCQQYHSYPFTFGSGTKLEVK
Resp: 0.03

Numbers sourced from patent US20220363736A1.
